Tested on: Hepatocarcinoma cells (HepG2)
Experiment: Cytotoxicity evaluation, neutral red assay
Assay type: cell-based, human
Conditions: HepG2, 72 h, read-out: IC50^HepG2, NR Average (confidence interval-95%)
// reported IC50 per item

Entry O=[N+]([O-])c1ccc(C=NNc2nc3ccccc3[nH]2)cc1 [Compound 4] : reported IC50 = ? > 6.25 µM

Entry CCn1c(CN2CCN(Cc3ccccc3)CC2)nc2cc(NC(=O)c3cccs3)ccc21 [Compound 5] : reported IC50 = ? > 100 µM

---

System: Hepatocarcinoma cells (HepG2)
Assay: Cytotoxicity evaluation, neutral red assay
Type: cell-based, human
Conditions: Homo sapiens, HepG2, 72 h, read-out: IC50^HepG2, NR Average (confidence interval-95%)
REPORTED PROPERTY: pIC50
To interpret pIC50, take it as minus log10 of a concentration measured in moles per litre.

Entry C[C@H]1[C@H](OC(=O)CCC(=O)O)O[C@@H]2O[C@@]3(C)CC[C@H]4[C@H](C)CC[C@@H]1[C@@]24OO3 [Artesunate, reference compound] : reported pIC50 = ? 3.96

Recorded values, source paper PMC6938011.
